The following variants are shown together with reported protein stability index values.
B1: FCHO1 (parent)
chain: HLELTRKLQDLIKDVLRYGEEQLK

- Variants of: B1
- assay: protein stability index of a GFP-peptide fusion (GPS, HEK-293T) (PSI 1-6); higher = more stable;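 also: lentivirally expressed fusions sorted by FACS into six bins by GFP to DsRed ratio, PSI derived from sequencing read proportions per bin multiplied by bin number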
- test_parameters: c terminus: a fixed tail appended
Please reply with the number alone, leaving off any unit.

Worked set:
mutation_annotation	protein stability index
I12R	3.39
G19H	2.29
D10Y	4.45
K24N	3.69
K24S	2.66

What does the data say about its protein stability index? Entry: K24Q
2.48

What does the data say about its protein stability index? Entry: K7E
2.28

What does the data say about its protein stability index? Entry: D10N
2.62

What does the data say about its protein stability index? Entry: Q9I
1.22

What does the data say about its protein stability index? Entry: L11H
2.51

What does the data say about its protein stability index? Entry: L16G
2.61

What does the data say about its protein stability index? Entry: R17S
1.46

What does the data say about its protein stability index? Entry: I12A
2.27

What does the data say about its protein stability index? Entry: G19Y
1.75

What does the data say about its protein stability index? Entry: G19E
1.88

What does the data say about its protein stability index? Entry: L11C
1.67
